Provenance of the data: patent US20180036441A1

- assayed_system: T1, MUC1 on HCT116/MUC1 cells (UniProt P15941 24-1255, limits assumed)
- T1 construct: whole, on cells; also called MUC1 overexpressed cell line
- T1 sequence (P15941 24-1255 limits assumed): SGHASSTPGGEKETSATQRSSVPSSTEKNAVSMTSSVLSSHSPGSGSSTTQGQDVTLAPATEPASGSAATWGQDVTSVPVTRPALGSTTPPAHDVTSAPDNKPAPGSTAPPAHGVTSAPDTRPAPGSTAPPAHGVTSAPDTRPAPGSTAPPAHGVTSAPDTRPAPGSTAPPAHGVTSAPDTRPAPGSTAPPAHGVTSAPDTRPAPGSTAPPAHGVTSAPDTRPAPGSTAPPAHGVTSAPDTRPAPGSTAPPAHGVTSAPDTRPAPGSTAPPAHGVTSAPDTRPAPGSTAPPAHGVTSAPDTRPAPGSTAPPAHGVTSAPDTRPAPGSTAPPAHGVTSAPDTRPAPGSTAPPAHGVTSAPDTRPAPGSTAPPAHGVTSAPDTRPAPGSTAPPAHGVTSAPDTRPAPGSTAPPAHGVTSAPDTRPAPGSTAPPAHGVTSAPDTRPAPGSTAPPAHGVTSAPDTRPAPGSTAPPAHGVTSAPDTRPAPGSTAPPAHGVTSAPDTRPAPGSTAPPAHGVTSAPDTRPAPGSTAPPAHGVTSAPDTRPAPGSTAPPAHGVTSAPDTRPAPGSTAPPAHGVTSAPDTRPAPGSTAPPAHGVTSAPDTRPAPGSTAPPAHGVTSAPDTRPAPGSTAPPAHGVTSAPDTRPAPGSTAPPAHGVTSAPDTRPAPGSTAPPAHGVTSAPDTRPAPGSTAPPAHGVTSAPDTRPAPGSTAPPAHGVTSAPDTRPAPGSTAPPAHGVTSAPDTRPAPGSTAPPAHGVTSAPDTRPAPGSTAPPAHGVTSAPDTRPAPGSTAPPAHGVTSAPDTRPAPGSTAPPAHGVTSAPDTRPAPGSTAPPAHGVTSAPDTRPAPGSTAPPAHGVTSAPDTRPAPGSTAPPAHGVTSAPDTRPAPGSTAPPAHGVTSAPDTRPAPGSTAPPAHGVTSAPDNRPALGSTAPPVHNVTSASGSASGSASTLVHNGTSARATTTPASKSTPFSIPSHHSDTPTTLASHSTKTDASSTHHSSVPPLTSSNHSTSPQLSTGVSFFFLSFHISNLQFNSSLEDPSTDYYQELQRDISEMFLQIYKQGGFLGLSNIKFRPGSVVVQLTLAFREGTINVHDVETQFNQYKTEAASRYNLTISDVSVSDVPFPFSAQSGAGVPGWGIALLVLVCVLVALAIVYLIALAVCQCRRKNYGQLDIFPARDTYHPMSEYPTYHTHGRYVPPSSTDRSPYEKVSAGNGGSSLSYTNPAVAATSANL
- measurement_protocol: FACS titration, HCT116/MUC1 cells, antibody at 7.812 nM
Task for the reader: assign each of the following binders its reported geometric mean.
Answers are plain numbers.

VH1 + VL1 (antibody, V domains shown, Humanized IgG expressed in HEK293; also called humanized antibody VH1+VL1) VH: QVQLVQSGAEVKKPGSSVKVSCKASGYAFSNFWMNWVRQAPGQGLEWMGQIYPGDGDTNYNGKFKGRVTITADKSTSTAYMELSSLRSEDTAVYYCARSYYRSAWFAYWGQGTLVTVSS VL: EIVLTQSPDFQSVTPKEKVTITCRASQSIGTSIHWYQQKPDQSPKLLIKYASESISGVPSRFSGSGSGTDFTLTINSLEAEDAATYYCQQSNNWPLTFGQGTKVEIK: 23.1
VH5 + VL1 (antibody, V domains shown, Humanized IgG expressed in HEK293; also called humanized antibody VH5+VL1) VH: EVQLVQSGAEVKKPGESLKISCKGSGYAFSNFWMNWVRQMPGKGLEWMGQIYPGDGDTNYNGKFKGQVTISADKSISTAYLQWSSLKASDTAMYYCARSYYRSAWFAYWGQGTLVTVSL VL: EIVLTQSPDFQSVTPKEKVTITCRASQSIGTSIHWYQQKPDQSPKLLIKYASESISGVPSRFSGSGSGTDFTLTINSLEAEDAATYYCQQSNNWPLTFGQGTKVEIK: 29.7
VH2 + VL4 (antibody, V domains shown, Humanized IgG expressed in HEK293; also called humanized antibody VH2+VL4) VH: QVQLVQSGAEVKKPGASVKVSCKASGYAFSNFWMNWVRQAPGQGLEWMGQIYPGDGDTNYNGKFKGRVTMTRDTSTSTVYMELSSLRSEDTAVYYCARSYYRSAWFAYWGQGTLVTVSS VL: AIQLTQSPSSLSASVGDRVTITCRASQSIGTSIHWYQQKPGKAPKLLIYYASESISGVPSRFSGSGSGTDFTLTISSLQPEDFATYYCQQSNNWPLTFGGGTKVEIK: 19

Now consider the entry below.
## Task Let me know recorded geometric mean for VH5 + VL3 (antibody, V domains shown, Humanized IgG expressed in HEK293; also called humanized antibody VH5+VL3) VH: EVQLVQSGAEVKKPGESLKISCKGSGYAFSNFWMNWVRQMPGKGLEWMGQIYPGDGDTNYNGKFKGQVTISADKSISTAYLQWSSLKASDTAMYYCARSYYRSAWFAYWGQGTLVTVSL VL: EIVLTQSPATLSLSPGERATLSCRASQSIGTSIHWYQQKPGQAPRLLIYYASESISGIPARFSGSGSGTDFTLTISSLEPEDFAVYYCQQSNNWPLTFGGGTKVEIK , thanks.
## Result 31
